This collection of values is drawn from patent US20240287080A1.

target: Pol theta (1-899) (Homo sapiens); construct: Pol theta (1-899) (5 nM) in assay buffer; assay: Pol theta ATPase activity, NADH oxidation-coupled enzymatic assay (ATPase NADH coupling: Standard Screening: hPolQ); assay type: biochemical; settings: Pol theta (1-899) 5 nM, NADH oxidation-coupled ATPase assay; compounds of Table 3
Sequence (O75417 1-899): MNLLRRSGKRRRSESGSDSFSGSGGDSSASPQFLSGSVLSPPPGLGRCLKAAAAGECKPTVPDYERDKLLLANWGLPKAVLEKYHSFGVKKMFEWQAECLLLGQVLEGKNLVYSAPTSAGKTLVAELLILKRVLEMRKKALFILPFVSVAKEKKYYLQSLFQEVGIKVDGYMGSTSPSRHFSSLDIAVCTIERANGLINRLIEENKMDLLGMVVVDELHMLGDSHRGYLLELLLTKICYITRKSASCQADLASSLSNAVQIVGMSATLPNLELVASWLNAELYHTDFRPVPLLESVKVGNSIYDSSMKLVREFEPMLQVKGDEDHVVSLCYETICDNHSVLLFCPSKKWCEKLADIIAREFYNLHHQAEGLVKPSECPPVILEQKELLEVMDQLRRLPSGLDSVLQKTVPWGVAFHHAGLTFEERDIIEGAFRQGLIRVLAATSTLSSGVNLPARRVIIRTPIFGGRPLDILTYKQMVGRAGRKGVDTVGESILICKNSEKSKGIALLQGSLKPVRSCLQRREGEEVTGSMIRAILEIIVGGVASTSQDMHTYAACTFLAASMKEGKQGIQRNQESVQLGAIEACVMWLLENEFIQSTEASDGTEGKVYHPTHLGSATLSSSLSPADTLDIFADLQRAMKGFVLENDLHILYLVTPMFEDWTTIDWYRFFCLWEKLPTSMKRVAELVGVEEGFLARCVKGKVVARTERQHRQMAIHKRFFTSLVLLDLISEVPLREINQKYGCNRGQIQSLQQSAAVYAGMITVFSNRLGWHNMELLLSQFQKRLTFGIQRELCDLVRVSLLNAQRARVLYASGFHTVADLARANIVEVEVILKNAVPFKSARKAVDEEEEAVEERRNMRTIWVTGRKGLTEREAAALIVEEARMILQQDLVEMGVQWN
pIC50: −log10 of the molar value.

| compound | assay_system | pIC50 |
| --- | --- | --- |
| COc1cnc(Cl)cc1-c1cc(C)ncc1C(=O)Nc1nnc(O[C@H]2CO[C@H]3[C@@H]2OC[C@H]3O)s1 [Example 237] | Pol theta (1-899) (Homo sapiens) | ≥ 6.70 |
| COc1nnc(NC(=O)c2cnc(C)cc2-c2cccc(-c3ccn(C)n3)c2)s1 [Example 453] | Pol theta (1-899) (Homo sapiens) | 5.00 to 6.00 |
| COc1ccc(-c2cc(C)ncc2C(=O)Nc2nnc(OC)s2)cn1 [Example 407] | Pol theta (1-899) (Homo sapiens) | 5.00 to 6.00 |
| COc1nnc(NC(=O)c2cc(N3CCC3)ncc2-c2cc(Cl)ncc2OC)s1 [Example 323] | Pol theta (1-899) (Homo sapiens) | ≥ 6.70 |

---

molecular target: Pol theta (1-899) (Homo sapiens); construct: Pol theta (1-899) (5 nM) in assay buffer; assay: Pol theta ATPase activity, NADH oxidation-coupled enzymatic assay (ATPase NADH coupling: Standard Screening: hPolQ); assay type: biochemical; conditions: Pol theta (1-899) 5 nM, NADH oxidation-coupled ATPase assay; compounds of Table 3
pIC50: −log10 of the molar value.
property_name: pIC50

| compound | result |
| --- | --- |
| COc1nnc(NC(=O)c2cnc(C)cc2-c2cccc(C(F)(F)F)c2)s1 | ≥ 6.70 |
| COc1cnc(Cl)cc1-c1cc(C)ncc1C(=O)Nc1nnc(O[C@H]2CO[C@H]3[C@@H]2OC[C@H]3O[N+](=O)[O-])s1 | ≥ 6.70 |
| COc1nnc(NC(=O)c2cnc(C)cc2-c2ccccc2C#N)s1 | 5.00 to 6.00 |
| COc1nnc(NC(=O)c2cnc(C)cc2-c2cccc(F)c2C#N)s1 | 6.00 to 6.30 |
| COc1nnc(NC(=O)c2cnc(C)cc2-c2ccc(F)c(F)c2)s1 | 5.00 to 6.00 |
| COc1nnc(NC(=O)c2cnc(C)cc2-c2cc(Br)c([S@+](C)[O-])cc2OC)s1 (single isomer, unassigned) | 6.00 to 6.30 |
| COc1cnc(C)c(F)c1-c1cc(C)ncc1C(=O)Nc1nnc(O[C@@H]2C[C@@H]3C[C@H]2C[C@H]3O)s1 (single isomer, unassigned) | ≥ 6.70 |
| COc1nnc(NC(=O)c2cnc(C)cc2-c2cccc3nn(C)cc23)s1 | 5.00 to 6.00 |
| COc1cnc(Cl)cc1-c1cc(C)ncc1C(=O)Nc1nnc(OC2CCN(C3COC3)CC2)s1 | ≥ 6.70 |
| COc1cnc(Cl)cc1-c1cc(C)ncc1C(=O)Nc1nnc(O[C@@H]2CCCN([C@@H]3CCOC3)C2)s1 | ≥ 6.70 |
| COc1cnc(C)c(F)c1-c1cc(C)ncc1C(=O)Nc1nnc(OC2([C@H]3CCOC3)CC2)s1 (single isomer, unassigned) | ≥ 6.70 |
| COc1nnc(NC(=O)c2cnc(C)cc2-c2cnc3ccccc3c2)s1 | 5.00 to 6.00 |
| COc1nnc(NC(=O)c2cnc(C)cc2-c2ccc3ccn(C)c3c2)s1 | 5.00 to 6.00 |
| COc1nnc(NC(=O)c2cnc(C)cc2-c2cncc(C(=O)NC3CC3)c2)s1 | 5.00 to 6.00 |
| COc1nnc(NC(=O)c2cnc(C)cc2-c2cccc(CN(C)C)c2)s1 | 5.00 to 6.00 |
| COc1cnc(Cl)cc1-c1cc(C)ncc1C(=O)Nc1nnc(O[C@@H]2CCCN([C@H]3CCOC3)C2)s1 | ≥ 6.70 |
| COc1nnc(NC(=O)c2cnc(C)cc2-c2cccc(C(=O)O)c2)s1 | 5.00 to 6.00 |
| COc1nnc(NC(=O)c2cnc(C)cc2-c2cc(Cl)cc3c2OCCN3)s1 | ≥ 6.70 |
| COc1nnc(NC(=O)c2cnc(C)cc2-c2cccc(OCC#N)c2)s1 | 5.00 to 6.00 |
| COc1ccc(F)c(-c2cc(C)ncc2C(=O)Nc2nnc(OC)s2)c1 | 6.00 to 6.30 |
| COc1nnc(NC(=O)c2cnc(C)cc2-c2ccc3[nH]ccc3c2)s1 | 5.00 to 6.00 |
| COc1nnc(NC(=O)c2cnc(C)cc2-c2cccc(C)c2)s1 | 6.00 to 6.30 |
| COc1nnc(NC(=O)c2cnc(C)cc2-c2cccc(S(N)(=O)=O)c2)s1 | 5.00 to 6.00 |
| COc1nnc(NC(=O)c2ccc(C#N)cc2-c2cc(Cl)ncc2OC)s1 | ≥ 6.70 |
| COc1nnc(NC(=O)c2cnc(C)cc2-c2cnc(N3CCOCC3)nc2)s1 | 5.00 to 6.00 |
| COc1cnc(C)c(F)c1-c1cc(C)ncc1C(=O)Nc1nnc(O[C@@H]2CCC[C@H](O)C2)s1 (single isomer, unassigned) | ≥ 6.70 |
| COc1nnc(NC(=O)c2cnc(C)cc2-c2ccccc2C)s1 | 6.00 to 6.30 |
| COc1nnc(NC(=O)c2cnc(C)cc2-c2cccc(C(=O)N(C)C)c2)s1 | 5.00 to 6.00 |
| COc1nnc(NC(=O)c2ccnc(C#N)c2-c2cc(Cl)ncc2OC)s1 | 5.00 to 6.00 |
| COc1cnc(Cl)cc1-c1cc(C)ncc1C(=O)Nc1nnc(O[C@H]2CO[C@H]3OCC[C@H]32)s1 | ≥ 6.70 |
| COc1nnc(NC(=O)c2cnc(C)cc2-c2cncc(C(N)=O)c2)s1 | 5.00 to 6.00 |
| COc1nnc(NC(=O)c2cnc(C)cc2-c2ccc3c(c2)OCO3)s1 | 6.00 to 6.30 |
| CCCCc1ccc(-c2cc(C)ncc2C(=O)Nc2nnc(OC)s2)cc1 | 5.00 to 6.00 |
